- TARGET ENTITY: T1, Aβ1–42 fibrils (UniProt P05067 672-713)
- T1 construct: amyloid-β peptide Aβ1–42, cut from the amyloid precursor protein (APP), in fibrillar form; Aggregated (fibrillar) state of the same peptide as m15; also called fibrillar Aß1–42; Aβ fibrils; source: bought: JPT Biotech or Bachem AG (HPLC purified peptide); fibrils formed at 37°C (7 days in PBS pH 7.4 for SPR; five days in 50 mM Tris-HCl pH 7.4 for ELISA)
- T1 sequence (P05067 672-713): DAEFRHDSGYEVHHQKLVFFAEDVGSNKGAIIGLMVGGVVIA
- ASSAY METHOD TEXT: ELISA; Aβ1–42 fibrils coated on the plate (10 µg/ml, bicarbonate-carbonate buffer pH 9.6); D-compounds from 10 µg/ml, 2 h at 37°C; detected by anti-fluorescein isothiocyanate-AP, pNPP 2.5 h
- TEST CONTEXT: both partners purified
Square brackets hold non-standard residues; d marks the D form. Primed or numbered codes have the meaning given here. Ends that are not written are not given here. FITC′ = fluorescein isothiocyanate (ϕ)
MEASURED QUANTITY: % binding relative to ACI-80-Kϕ (%)

1. [dP][dS][dH][dY][dR][dH][dI][dS][dP][dA][dQ][dK][dK](FITC′) (D-enantiomeric derivative of ACI-80 (D1): Q1P, V12K, added C-terminal lysine; also called D1-Q1P-V12K-Kϕ; source: synthetic peptide (JPT Peptide Technologies GmbH, Berlin)) [ACI-89-Kϕ] ... 165
2. [dQ][dS][dH][dY][dR][dH][dI][dS][dP][dA][dQ][dK][dK](FITC′) (also: [19F]-4-fluorobenzoyl label, place not given here, D-enantiomeric derivative of ACI-80 (D1): V12K, added C-terminal lysine, fluorinated; The text says V12K was made to enable fluorination; also called D1-V12K-K[^19F]ϕ; source: synthetic peptide, reacted with [^19F]-N-succinimidyl-4-fluorobenzoate (SFB), HPLC purified) [[^19F]-ACI-87-Kϕ] ... 140
3. [dP][dS][dF][dY][dR][dH][dI][dS][dP][dA][dQ][dV][dK](FITC′) (D-enantiomeric derivative of ACI-80 (D1): Q1P, H3F, added C-terminal lysine; also called D1-Q1P-H3F-Kϕ; source: synthetic peptide (JPT Peptide Technologies GmbH, Berlin)) [ACI-86-Kϕ] ... 138
